TARGET OR SYSTEM: T1, Antibody No. 465.1
T1 construct: also called Ab No. 465.1
PROTOCOL: peptide blocking ELISA on plate-bound VISTA, peptide 2 ug/mL
METRIC: percent reduction in ELISA signal (%)
Please respond with the number in % and leave the unit unwritten.

Qu. For AMELQVQTGKDAPSN (synthetic overlapping peptide from human VISTA) [Spiked Peptide 27 (AMELQVQTGKDAPSN)] , what is its reported percent reduction in ELISA signal?
Ans. 0

Qu. Next: LLDSGLYCCLVVEIR (synthetic overlapping peptide from human VISTA) [Spiked Peptide 22 (LLDSGLYCCLVVEIR)]
Ans. 0

Qu. Can you handle CSERRPIRNLTFQDL (synthetic overlapping peptide from human VISTA) [Spiked Peptide 11 (CSERRPIRNLTFQDL)] next?
Ans. 0

Qu. Please do the same for VCPEGQNVTLTCRLL (synthetic overlapping peptide from human VISTA) [Spiked Peptide 3 (VCPEGQNVTLTCRLL)] as well.
Ans. 2
